experiment: Mean residence time in Sprague-Dawley rat at 1 mg/kg, iv measured after 24 hrs by HPLC-MS/MS analysis; format: ADME, organism-based; conditions: in vivo
Measured parameter: MRT (min)

Request: Query MRT for N#Cc1ccc2ncn(C[C@H]3CCC[C@]4(C3)CN(c3ccc(F)cc3)C(=O)O4)c2c1 (racemic)
Response: 186

Request: Provide measured MRT value, entry: CCOc1ccc(N2C[C@@]3(CCC[C@](C)(Cn4cnc5ccc(C#N)cc54)C3)OC2=O)cc1
Response: 54

1 = COc1ccccc1N1C[C@@]2(CCC[C@](C)(Cn3cnc4ccc(C#N)cc43)C2)OC1=O
2 = CC(C)(C)CN1C[C@@]2(CCC[C@H](Cn3cnc4ccc(C#N)cc43)C2)OC1=O
Request: Hey, between 1 and 2 which has a smaller measured MRT? Identify your selection by its label.
Response: 2
(2: 42 min, 1: 60 min)

---

target: UniProt Q9HBA0; test: Inhibition of human TRPV4 expressed in baculovirus infected HEK/MSR 2 cells pre-incubated for 10 mins followed by GSK634775A addition by Fura-2 dye based FLIPR assay
pIC50: −log10 of the molar value.
Measured parameter: pIC50

Worked examples, 3 compounds total:
Request: Find the measured pIC50 of C[C@]1(Cn2cnc3ccc(C#N)cc32)CCC[C@@]2(CN(c3ccccc3Cl)C(=O)O2)C1 and report it.
Response: 8.60

Request: Item CCOc1ccc(N2C[C@@]3(CCC[C@](C)(Cn4cnc5ccc(C#N)cc54)C3)OC2=O)cc1 : provide pIC50
Response: 8.28

Request: Give the value of pIC50 reported for the following: C[C@]1(Cn2cnc3ccc(C#N)cc32)CCC[C@@]2(CN(c3ccc(F)cc3)C(=O)O2)C1
Response: 7.02

a = CCOc1cccc(N2C[C@@]3(CCC[C@](C)(Cn4cnc5ccc(C#N)cc54)C3)OC2=O)c1
b = CCOc1ccc(N2C[C@@]3(CCC[C@](C)(Cn4cnc5ccc(C#N)cc54)C3)OC2=O)nn1
c = C[C@]1(Cn2cnc3ccc(C#N)cc32)CCC[C@@]2(CN(c3ccccc3F)C(=O)O2)C1
Request: List by increasing pIC50. Your answer should be the labels, listed in the requested order.
Response: b, c, a

a = CC(C)(O)c1cnc(N2C[C@@]3(CCC[C@](C)(Cn4cnc5ccc(C#N)cc54)C3)OC2=O)cn1
b = COc1cnc(N2C[C@@]3(CCC[C@](C)(Cn4cnc5ccc(C#N)cc54)C3)OC2=O)cn1
Request: I'd appreciate it if you could identify which of a and b has the greater pIC50. // caller expects the label of the chosen entry
Response: a
(a: 8.74, b: 7.85)

1 = N#Cc1ccc2ncn(C[C@H]3CCC[C@]4(C3)CN(c3ccccc3)C(=O)O4)c2c1
2 = CC(C)(C)c1cnc(N2C[C@@]3(CCC[C@](C)(Cn4cnc5ccc(C#N)cc54)C3)OC2=O)cn1
Request: // compare measured pIC50 between 1 and 2 ; output the lower one State your choice using its label.
Response: 1
(1: 6.09, 2: 8.92)

---

assay: Clearance in Sprague-Dawley rat at 1 mg/kg, iv measured after 24 hrs by HPLC-MS/MS analysis; assay type: ADME, organism-based; settings: in vivo
Measured parameter: clearance (mL/min/kg)

Request: Find the measured clearance of CCOc1cnc(N2C[C@@]3(CCC[C@](C)(Cn4cnc5ccc(C#N)cc54)C3)OC2=O)cn1 and report it.
Response: 17

Request: Return clearance (reported value) for this compound: CC(C)(O)c1cnc(N2C[C@@]3(CCC[C@](C)(Cn4cnc5ccc(C#N)cc54)C3)OC2=O)cn1
Response: 6.5

I = N#Cc1ccc2ncn(C[C@H]3CCC[C@]4(C3)CN(c3ccc(F)cc3)C(=O)O4)c2c1 (racemic)
II = CC(C)(C)CN1C[C@@]2(CCC[C@](C)(Cn3cnc4ccc(C#N)cc43)C2)OC1=O
Request: Of I versus II , which is the one with smaller reported clearance? Could you answer with the label of the item you picked?
Response: I

---

assay: Lipophilicity, chromatographic logD of compound at pH 7.4; conditions: buffer
Measured parameter: ChromLogD

Request: Entry C[C@]1(Cn2cnc3ccc(C#N)cc32)CCC[C@@]2(CN(c3cnc(C4CC4)cn3)C(=O)O2)C1 needs its ChromLogD filled in; supply it.
Response: 5.3

Request: Give the value of ChromLogD reported for the following: C[C@]1(Cn2cnc3ccc(C#N)cc32)CCC[C@@]2(CN(c3ccccc3F)C(=O)O2)C1
Response: 4.9

Request: Give recorded ChromLogD. Cc1cnc(N2C[C@@]3(CCC[C@](C)(Cn4cnc5ccc(C#N)cc54)C3)OC2=O)cn1
Response: 4.2

Request: // fetch ChromLogD given entry N#Cc1ccc2ncn(C[C@H]3CCC[C@]4(C3)CN(c3ccccc3F)C(=O)O4)c2c1
Response: 4.2

Request: Report ChromLogD for CCOc1cccc(N2C[C@@]3(CCC[C@](C)(Cn4cnc5ccc(C#N)cc54)C3)OC2=O)c1
Response: 5.3

Request: Output measured ChromLogD for this item: CC(C)(C)N1C[C@@]2(CCC[C@H](Cn3cnc4ccc(C#N)cc43)C2)OC1=O (racemic)
Response: 4

Request: Quote ChromLogD reported for CC(C)(C)CN1C[C@@]2(CCC[C@](C)(Cn3cnc4ccc(C#N)cc43)C2)OC1=O please.
Response: 4.6

Request: Given the compound COc1ccccc1N1C[C@@]2(CCC[C@H](Cn3cnc4ccc(C#N)cc43)C2)OC1=O , write its reported ChromLogD.
Response: 4.2

Request: Dear colleague, please send me the reported ChromLogD for CC(C)(C)CN1C[C@@]2(CCC[C@H](Cn3cnc4ccc(C#N)cc43)C2)OC1=O when you can.
Response: 4.5

---

assay: Oral bioavailability in Sprague-Dawley rat at 2 mg/kg measured after 24 hrs by HPLC-MS/MS analysis; format: ADME, organism-based; conditions: in vivo
Measured parameter: bioavailability (%)

Request: Please supply the value of reported bioavailability for the item CC(C)(C)N1C[C@@]2(CCC[C@H](Cn3cnc4ccc(C#N)cc43)C2)OC1=O (racemic)
Response: 44

Request: Answer with the recorded bioavailability of CCOc1cnc(N2C[C@@]3(CCC[C@](C)(Cn4cnc5ccc(C#N)cc54)C3)OC2=O)cn1 only.
Response: 100

Request: State, in one line, measured bioavailability of C[C@]1(Cn2cnc3ccc(C#N)cc32)CCC[C@@]2(CN(c3ccc(F)cc3)C(=O)O2)C1
Response: 100

Request: Please indicate bioavailability recorded for CCOc1ccc(N2C[C@@]3(CCC[C@](C)(Cn4cnc5ccc(C#N)cc54)C3)OC2=O)cc1
Response: 29

Request: Annotate the compound CC(C)(C)CN1C[C@@]2(CCC[C@H](Cn3cnc4ccc(C#N)cc43)C2)OC1=O with its measured bioavailability.
Response: 63

1 = N#Cc1ccc2ncn(C[C@H]3CCC[C@]4(C3)CN(c3ccc(F)cc3)C(=O)O4)c2c1 (racemic)
2 = CC(C)(C)CN1C[C@@]2(CCC[C@](C)(Cn3cnc4ccc(C#N)cc43)C2)OC1=O
3 = CC(C)(O)c1cnc(N2C[C@@]3(CCC[C@](C)(Cn4cnc5ccc(C#N)cc54)C3)OC2=O)cn1 [GSK2798745]
4 = CC(C)(C)CN1C[C@@]2(CCC[C@H](C(C)(C)n3cnc4ccc(C#N)cc43)C2)OC1=O (racemic)
Request: Arrange by bioavailability, high to low. Hello, could you send the labels back in the order asked? Thank you.
Response: 1, 3, 2, 4

---

biological target: UniProt:Q9HBA0; assay: Inhibition of human TRPV4 expressed in baculovirus infected HEK/MSR 2 cells pre-incubated for 10 mins followed by GSK634775A addition by Fura-2 dye based FLIPR assay
pIC50: −log10 of the molar value.
Measured parameter: pIC50

Request: Return reported pIC50. Input molecule: C[C@]1(Cn2cnc3ccc(C#N)cc32)CCC[C@@]2(CN(c3cnc(C4CC4)cn3)C(=O)O2)C1
Response: 8.82

a = Cc1cnc(N2C[C@@]3(CCC[C@](C)(Cn4cnc5ccc(C#N)cc54)C3)OC2=O)cn1
b = CCOc1cnc(N2C[C@@]3(CCC[C@](C)(Cn4cnc5ccc(C#N)cc54)C3)OC2=O)cn1
Request: Compare a and b and name the one whose reported pIC50 is smaller. Let me know the label of the one you choose.
Response: a
(a: 7.22, b: 8.38)

---

target: Transient receptor potential cation channel subfamily V member 4 (Homo sapiens); assay: Inhibition of human TRPV4 expressed in baculovirus infected HEK/MSR 2 cells pre-incubated for 10 mins followed by GSK634775A addition by Fura-2 dye based FLIPR assay
Sequence (Q9HBA0 whole entry): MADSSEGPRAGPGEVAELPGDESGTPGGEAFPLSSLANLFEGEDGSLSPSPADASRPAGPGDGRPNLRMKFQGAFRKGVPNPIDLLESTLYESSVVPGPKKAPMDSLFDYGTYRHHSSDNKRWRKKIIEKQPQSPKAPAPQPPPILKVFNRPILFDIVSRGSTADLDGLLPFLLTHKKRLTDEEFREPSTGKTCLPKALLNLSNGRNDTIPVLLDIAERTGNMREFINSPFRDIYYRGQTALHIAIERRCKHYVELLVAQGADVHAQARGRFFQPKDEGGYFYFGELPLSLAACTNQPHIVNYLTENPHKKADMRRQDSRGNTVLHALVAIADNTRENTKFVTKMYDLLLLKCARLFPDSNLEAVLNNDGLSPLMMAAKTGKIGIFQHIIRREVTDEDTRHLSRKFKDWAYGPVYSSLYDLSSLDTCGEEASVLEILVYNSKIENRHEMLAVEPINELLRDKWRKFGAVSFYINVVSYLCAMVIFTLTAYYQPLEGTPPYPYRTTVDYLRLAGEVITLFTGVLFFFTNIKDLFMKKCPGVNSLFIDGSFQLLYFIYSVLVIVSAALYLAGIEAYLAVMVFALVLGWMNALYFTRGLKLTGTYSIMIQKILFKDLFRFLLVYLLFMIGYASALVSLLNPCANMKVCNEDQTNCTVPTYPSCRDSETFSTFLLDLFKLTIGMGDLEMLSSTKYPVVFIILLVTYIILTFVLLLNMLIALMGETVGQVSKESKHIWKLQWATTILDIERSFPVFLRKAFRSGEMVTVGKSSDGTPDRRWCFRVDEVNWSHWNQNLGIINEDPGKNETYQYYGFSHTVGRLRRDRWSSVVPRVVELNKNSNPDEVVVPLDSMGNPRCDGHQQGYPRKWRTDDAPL
Measured parameter: IC50 (nM)

a = CC(C)(C)CN1C[C@@]2(CCC[C@](C)(Cn3cnc4ccc(C#N)cc43)C2)OC1=O
b = N#Cc1ccc2ncn(C[C@H]3CCC[C@]4(C3)CN(c3ccc(F)cc3)C(=O)O4)c2c1 (racemic)
c = CC(C)(C)CN1C[C@@]2(CCC[C@H](Cn3cnc4ccc(C#N)cc43)C2)OC1=O
Request: Put the above entries in order of falling IC50. Dear reader, please state the labels in the requested order.
Response: b, c, a

A = Cc1ccccc1N1C[C@@]2(CCC[C@H](Cn3cnc4ccc(C#N)cc43)C2)OC1=O
B = CCOc1ccc(N2C[C@@]3(CCC[C@](C)(Cn4cnc5ccc(C#N)cc54)C3)OC2=O)cn1
Request: Which record shows the lower IC50: the first, A , or the second, B ? Give the label of your selection.
Response: B

a = CCOc1cccc(N2C[C@@]3(CCC[C@H](Cn4cnc5ccc(C#N)cc54)C3)OC2=O)c1
b = C[C@]1(Cn2cnc3ccc(C#N)cc32)CCC[C@@]2(CN(c3ccccc3)C(=O)O2)C1
Request: Which value of IC50 is greater, the one for a or the one for b ? Lab log: write the label of the selected item as the result.
Response: a
(a: 74 nM, b: 49 nM)

Just for reference, ChEMBL document CHEMBL4304797 is where these values come from.
